experiment: chemical genetic growth profiling, strain panel (AID 1159580);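 further: tested at 20 µM; growth read once vehicle control cultures reached saturation at 30 °C; 1 = growth at the plate median or of vehicle wells; lower values mean less growth of the strain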; details: S. cerevisiae deletion strains, growth OD, locus YNL322C, strain KRE1, hits give low values
The campaign covered roughly 5,500 compounds. About 2,000 (36%) were called active. Inconclusive results (about 18%) are left out. The list shows a part of the results.
Reported values of normalized growth for individual entries
// return just the number, without any unit appended

Query :: Determine from records and report normalized growth for CCCC1O[C@@H]2CC3C4CCC5=CC(=O)C=CC5(C)C4[C@@H](O)CC3(C)[C@]2(C(=O)CO)O1 (some centres not stated)
Result :: 1

Query :: Determine from records and report normalized growth for C=C[C@@H](C1=CC(=O)C(OC)=C(OC)C1=O)c1ccccc1
Result :: 0.835

Query :: Determine from records and report normalized growth for O=C(NNC(=S)Nc1ccc(F)cc1)c1ccccc1Cl
Result :: 0.997

Query :: Determine from records and report normalized growth for C[C@H](Cc1ccc(O)c(O)c1)[C@@H](C)Cc1ccc(O)c(O)c1
Result :: 0.478

Query :: Determine from records and report normalized growth for NC(=S)N/N=C\c1cccs1
Result :: 1.02

Query :: Determine from records and report normalized growth for CCOC(=O)N/N=C\c1cccs1
Result :: 1.01

Query :: Determine from records and report normalized growth for Cc1ccc(/C(=C\CN2CCCC2)c2ccccn2)cc1
Result :: 1.01

Query :: Determine from records and report normalized growth for CCCCC1(COC(=O)CCC(=O)O)C(=O)N(c2ccccc2)N(c2ccccc2)C1=O
Result :: 0.997

Query :: Determine from records and report normalized growth for Cc1c(Cl)cccc1NC(=S)Nc1ccc(Cl)cc1C(=O)c1ccccc1
Result :: 0.986

Query :: Determine from records and report normalized growth for O=C(N/N=C\c1cccs1)c1ccccc1CO
Result :: 0.996

Query :: Determine from records and report normalized growth for C=CC(C1=CC(=O)C(OC)=CC1=O)c1ccccc1 (configuration not stated)
Result :: 0.928

Query :: Determine from records and report normalized growth for C#CCOc1c(Cl)cccc1Cl
Result :: 0.986
